Each recorded value in this set is attributed to ChEMBL document CHEMBL1201862.

# Test system: SK-OV-3
# method.notes: NCI tumour cell line growth inhibition, 48 h
Calls of active or inactive are those of the source. Cut-off read from the data, not from the text of the source: active = GI50 up to about 1.1 µM and inactive = higher.
readout: GI50

Give measured GI50 for CCN(CC)Cc1cc(Nc2c3ccccc3nc3c2[nH]c2ccccc23)cc(CN(CC)CC)c1O (SK-OV-3). 3.25 µM (inactive)

Give measured GI50 for COc1ccc(NC=O)c(C(=O)CCNC(C)=O)c1 (SK-OV-3). > 100 µM (inactive)

Give measured GI50 for COc1cc(OC)c2c(c1)C(=O)C(CC(C)O)=CC2=O (stereo unspecified) (SK-OV-3). 18 µM (inactive)

Give measured GI50 for C=C1CC(Cn2cc(Br)c(=O)[nH]c2=O)(c2ccc(-c3ccccc3)cc2)OC1=O (stereo unspecified) (SK-OV-3). 4.31 µM (inactive)

Give measured GI50 for C=CCOC(=O)C[C@H](NC(=O)[C@H](Cc1ccc(O)cc1)NCC(F)(F)F)C(=O)OCC=C (SK-OV-3). > 100 µM (inactive)

Give measured GI50 for O=C(C/N=C(\CN(c1ccccc1)c1ccccc1)Oc1c(Cl)cc(Cl)cc1Cl)N1c2ccccc2Sc2ccccc21 (SK-OV-3). 29.6 µM (inactive)

Give measured GI50 for CCN(CC)/N=N/c1c(C(N)=O)n[nH]c1C (SK-OV-3). 22.1 µM (inactive)

Give measured GI50 for CC(=O)n1c2ccccc2c2nc3nc(Oc4ccc(C)cc4)c4ccccc4c3cc21 (SK-OV-3). > 100 µM (inactive)

Give measured GI50 for O=c1[nH]c2ccc(C(F)(F)F)cc2nc1C(F)(F)F (SK-OV-3). 27.1 µM (inactive)

Give measured GI50 for CCOP(=O)(OCC)c1cc2cc(O)ccc2oc1=O (SK-OV-3). > 100 µM (inactive)

Give measured GI50 for Fc1ccc(N2C(=S)SC(=N\c3ccccc3)/C2=N/c2ccccc2)cc1 (SK-OV-3). > 100 µM (inactive)

Give measured GI50 for C/C=C\C(CC(=O)O)CN1CCC2=C(C1)C(S(=O)(=O)C(F)(F)F)c1ccccc12 (stereo unspecified) (SK-OV-3). > 100 µM (inactive)

Give measured GI50 for Cc1cc(C)nc(NS(=O)(=O)c2ccc(Nc3nncc(=O)n3N)cc2)n1 (SK-OV-3). 55.7 µM (inactive)

Give measured GI50 for O=C1/C(=C/c2ccc(O)cc2)CCC1CNc1ccccc1 (stereo unspecified) (SK-OV-3). 22.5 µM (inactive)

Give measured GI50 for COC(=O)[C@@H]1C[C@@]23CCCN4CC[C@@]5(c6cccc(OC)c6N(C=O)[C@]15CC2)[C@@H]43 (SK-OV-3). > 100 µM (inactive)

Give measured GI50 for O=C1OC2C(O)C(=O)OC2C1O (stereo unspecified) (SK-OV-3). > 100 µM (inactive)

Give measured GI50 for COc1ccc(C[C@@H]2CN(C(=O)c3ccccc3)[C@H](Cc3ccc(O)cc3)CN2C(=O)c2ccccc2)cc1Br (SK-OV-3). > 100 µM (inactive)

Give measured GI50 for CC(=O)/C=C1\Nc2ccc([N+](=O)[O-])cc2N\C1=C/C(C)=O (SK-OV-3). 90.8 µM (inactive)

Give measured GI50 for CCOC(=O)NC(Nc1ncccn1)(C(=O)OCC)C(F)(F)F (stereo unspecified) (SK-OV-3). > 10 µM (inactive)

Give measured GI50 for COC1OC(COS(=O)(=O)c2ccc(C)cc2)C(O)C(OS(=O)(=O)c2ccc(C)cc2)C1OS(=O)(=O)c1ccc(C)cc1 (stereo unspecified) (SK-OV-3). > 100 µM (inactive)

Give measured GI50 for Nc1cc(N2CCOCC2)nc(=O)n1-c1ccccc1 (SK-OV-3). > 100 µM (inactive)

###

# Test system: SK-MEL-2
# method.notes: NCI tumour cell line growth inhibition, 48 h
Calls of active or inactive are those of the source. Cut-off read from the data, not from the text of the source: active = GI50 up to about 1.1 µM and inactive = higher.
Give GI50 for every item shown.

Identify measured GI50 associated with O=c1c2cccnc2cc(-c2ccccc2)n1CCO > 100 µM (inactive)

Identify measured GI50 associated with O/N=C(\CC(O)(C(F)(F)F)C(F)(F)F)c1cccc(Cl)c1 22.7 µM (inactive)

Identify measured GI50 associated with COc1ccc(C2S/C(=C\c3ccc(OC)cc3OC)C(=O)N2NC(=O)Cc2ccccc2)cc1 (stereo unspecified) > 100 µM (inactive)

Identify measured GI50 associated with CC1=N/C(=C\c2ccc(C)cc2)C(=O)O1 > 100 µM (inactive)

Identify measured GI50 associated with CC(C)C(C/C=C1\CC(CO)(COC(=O)C(C)(C)C)OC1=O)C(C)C (stereo unspecified) 20.6 µM (inactive)

Identify measured GI50 associated with O=C1CCC2(c3ccc(Cl)cc3)Nc3cc(Cl)ccc3N12 (stereo unspecified) 11.4 µM (inactive)

###

# Test system: 786-0
# method.notes: NCI tumour cell line growth inhibition, 48 h
Activity calls are given as the source filed them. Cut-off read from the data, not from the text of the source: active = GI50 up to about 1.1 µM and inactive = higher.
Give GI50 for every item shown.

Give measured GI50 for CC(C)=CCC/C(=C/CC/C(=C\CCc1ccoc1)C(=O)O)C(=O)O (786-0). > 100 µM (inactive)

Give measured GI50 for Cc1ccnc2sc3ccccc3c(=O)c12 (786-0). 65 µM (inactive)

Give measured GI50 for O=C1c2cc3c(cc2CC1Br)CCC3 (stereo unspecified) (786-0). 1.8 µM (inactive)

Give measured GI50 for CN(C)Cc1cc(C(C)(C)C)cc(CN(C)C)c1O (786-0). 60.1 µM (inactive)

Give measured GI50 for Cc1cc(C)nc(NS(=O)(=O)c2ccc(Nc3nncc(=O)n3N)cc2)n1 (786-0). 15.8 µM (inactive)

Give measured GI50 for NC(=O)/C(=N\NC(=O)c1cc2ccccc2cc1O)C1C(=O)N(c2ccccc2)N=C1N (stereo unspecified) (786-0). 40 µM (inactive)

Give measured GI50 for O=C(COc1ccc(OCC(=O)N2C(=O)CS/C2=N\c2ccccc2)cc1)N1C(=O)CS/C1=N\c1ccccc1 (786-0). 19.2 µM (inactive)

Give measured GI50 for CCO/C([O-])=C(\C(=O)c1ccccc1)[n+]1c(C)n(C)c2ccccc21 (786-0). > 100 µM (inactive)

Give measured GI50 for N#CNc1nc(N)c(-c2ccc(Cl)cc2)c(C(=O)Nc2nccs2)n1 (786-0). > 100 µM (inactive)

Give measured GI50 for Clc1ccc(OCc2nnc3n2N=C(c2ccc(Br)cc2)CS3)cc1 (786-0). 16.4 µM (inactive)

Give measured GI50 for ClCc1nn(-c2ccccc2)c(CCl)c1CCl (786-0). 2.56 µM (inactive)

###

Give GI50 for every item shown.
# Test system: DU-145
# method.notes: NCI tumour cell line growth inhibition, 48 h
The source made the active and inactive calls. Rule as the data show it: active = GI50 up to about 1.1 µM and inactive = higher.

Identify measured GI50 associated with COc1ccc(-c2cc(-c3ccco3)c(C#N)c(=S)n2C2OC(CO)C(O)C(O)C2O)cc1 (stereo not given) > 10 µM (inactive)

Identify measured GI50 associated with C[C@@H]1CC[C@]2(C)C3(C)CC[C@]2(OC3=O)[C@@]12CC(c1ccoc1)OC2=O (stereo not given in full) > 100 µM (inactive)

Identify measured GI50 associated with CCOC(=O)NC(Nc1ncccn1)(C(=O)OCC)C(F)(F)F (stereo not given) > 100 µM (inactive)

Identify measured GI50 associated with CN(C)c1ccc(/N=N/c2ccccn2)cc1 48.6 µM (inactive)

Identify measured GI50 associated with COc1cc(NCc2ccc3nc(OC)c(OC)nc3c2)cc(OC)c1OC > 100 µM (inactive)

###

# Tested on: OVCAR-3
# method.notes: NCI tumour cell line growth inhibition, 48 h
The source made the active and inactive calls. No stated cut-off is given here; in the data, active = GI50 up to about 1.1 µM and inactive = higher.
readout: GI50

Identify measured GI50 associated with O=C(CNc1ccccc1C(=O)O)Nn1cnc2ccc(S(=O)(=O)Nc3ccccc3C(=O)O)cc2c1=O > 100 µM (inactive)

Identify measured GI50 associated with O=C1C(=O)C(Br)(Br)C(Br)=C1Br 15.5 µM (inactive)

Identify measured GI50 associated with C=CCO[C@H]1CC[C@@]2(C)C(CC[C@]3(C)C2CC=C2[C@@H]4[C@@H](C)C(C)CC[C@]4(C(=O)O)CCC23C)C1(C)C (stereo partly specified) 15.7 µM (inactive)

Identify measured GI50 associated with COc1ccc(NS(=O)(=O)c2ccc3ncn(NS(=O)(=O)c4ccc(I)cc4)c(=O)c3c2)cc1 > 100 µM (inactive)

Identify measured GI50 associated with COc1cc2oc3c(c(=O)c2c(O)c1/C=C/C(C)C)C(C=C(C)C)Oc1cc(O)ccc1-3 (stereo unspecified) 15 µM (inactive)

Identify measured GI50 associated with N[C@H](C(=O)O)[C@@H]1CC(Cl)=NO1 2.17 µM (inactive)

Identify measured GI50 associated with NC(=O)CCC(NC(=O)c1cccc2c(=O)c3ccccc3[nH]c12)C(=O)O (stereo unspecified) > 100 µM (inactive)

Identify measured GI50 associated with Cc1ccc(/C=C2\Sc3scc(-c4ccccc4)[n+]3C2=O)cc1 31.4 µM (inactive)

Identify measured GI50 associated with CC1OC2OC3C(OCC(O)C3O)OC(=O)[C@]34CCC(C)(C)CC3C3=CCC5[C@@]6(C)C[C@H](O)[C@H](OC7OC(CO)C(O)C(O)C7OC7OC(COC(=O)CC(C)(O)CC(=O)OC1C(O)C2O)C(O)C(O)C7O)[C@@](C)(CO)C6CC[C@@]5(C)[C@]3(C)CC4 (stereo partly specified) 1.53 µM (inactive)

Identify measured GI50 associated with O=C1CCCCC/C1=C\c1ccc(Cl)cc1 47.8 µM (inactive)

Identify measured GI50 associated with COc1ccc(C[C@H](N)C(=O)N2C[C@H](CO)C[C@H](n3ccc(=O)[nH]c3=O)C2)cc1 > 100 µM (inactive)

Identify measured GI50 associated with C=C1C(=O)O[C@H]2C1C[C@@H](O)/C(C)=C/CC[C@@]1(C)O[C@H]21 (stereo partly specified) 3.27 µM (inactive)

Identify measured GI50 associated with CCSc1nc(-c2cccs2)nc2ccc(I)cc12 11.2 µM (inactive)

Identify measured GI50 associated with O=C1/C(=C/c2cccc([N+](=O)[O-])c2)Sc2scc(-c3ccc([N+](=O)[O-])cc3)[n+]21 31.6 µM (inactive)

Identify measured GI50 associated with Nc1ncc(CN2CCOCC2)c(-c2ccccc2O)n1 > 100 µM (inactive)

Identify measured GI50 associated with O=C1CCC2(c3ccc(Cl)cc3)Nc3cc(Cl)ccc3N12 (stereo unspecified) 10.4 µM (inactive)

Identify measured GI50 associated with COc1ccc(CCCCl)c(C2=NCCc3ccccc32)c1 56.5 µM (inactive)

Identify measured GI50 associated with COc1ccc(/C(Br)=C2\OC(=O)c3ccccc32)cc1 > 10 µM (inactive)

Identify measured GI50 associated with C/C(=C\c1ccccc1)C(O)S(=O)(=O)O (stereo unspecified) > 100 µM (inactive)

Identify measured GI50 associated with CN(C)CCONC(=O)C12CC3CC(CC(C3)C1)C2 > 100 µM (inactive)

Identify measured GI50 associated with CCOC(=O)NC(Nc1ncccn1)(C(=O)OCC)C(F)(F)F (stereo unspecified) > 100 µM (inactive)
